B1: Kinesin-like protein KIF16B, residues 1213 to 1273; numbered along this chain, Q96L93 (parent)
chain: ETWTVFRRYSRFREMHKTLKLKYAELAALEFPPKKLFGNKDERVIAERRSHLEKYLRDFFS

variants of: B1; assay: abundance fitness (aPCA) (normalised: wild type 0, dead -1); higher = more abundant; growth selection in yeast, the domain comes from the species named; details: Homo sapiens
Entries and their measured abundance fitness follow.

These recorded examples may help you get a feel for the data.
Input: Report abundance fitness for Y23C please.
Output: 0.167

Input: Report abundance fitness for K54E please.
Output: -0.298

Input: Report abundance fitness for E30R please.
Output: 0.018

Input: Report abundance fitness for L19A please.
Output: -0.737

Input: Report abundance fitness for T4S please.
Output: 0.109

---
Input: Report abundance fitness for E47F please.
Output: 0.117

Input: Report abundance fitness for L56K please.
Output: -0.567

Input: Report abundance fitness for T4N please.
Output: 0.308
